src = the supplement of paper PMC10567573

B1: FAM46C (parent)
chain: FDHLQNRLIATKNPEEIRGGGLLK

variants of: B1; experiment: protein stability index of a GFP-peptide fusion (GPS, HEK-293T) (PSI 1-6); higher = more stable; conditions: c terminus: a fixed tail appended;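 further: lentivirally expressed fusions sorted by FACS into six bins by GFP to DsRed ratio, PSI derived from sequencing read proportions per bin multiplied by bin number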
So basically: protein stability index at 4 or higher? That is rule met. Lower than 4? That is rule not met.

{"mutationString": "G20H", "label": "rule not met"}
{"mutationString": "H3R", "label": "rule not met"}
{"mutationString": "L8S", "label": "rule met"}
{"mutationString": "E16W", "label": "rule not met"}
{"mutationString": "P14S", "label": "rule not met"}
